Biological target: HLA-DRB1*04:01 protein (HLA-DRA*01:01/HLA-DRB1*04:01) (human)
Experiment: fluorescence polarisation; competition: serial dilution of peptide from 500 μM against 20 nM TAMRA-HA for 100 nM HLA-DRB1 protein with 20 nM HLA-DM; 100 mM trisodium citrate pH 5.4, 50 mM NaCl, 5 mM EDTA; 37 °C, read after 24, 48 and 72 h
Where no end group is shown, it is not given here. [ ]: non-standard residue; d: D form. Cit = NC(=O)NCCC[C@H](N)C(=O)O
QUANTITY NAME: IC50 (nM)

{"columns": ["BINDER", "RECORDED VALUE"],
 "data": [
  ["D[Cit]Y[Cit]LNYSLPTG [TNC1014,1016cit peptide]", 1100]
]}
